Measured values drawn from patent US20140256664A1 for this set.

Test system: M. tuberculosis isolates
Format: cell-based, Mycobacterium tuberculosis
Details: phage assay result R
Where a name gives a salt, the structure may show the parent alone.
quantity name: Agar proportion R (n isolates)
Please respond with just the number, no unit label.

Here are 3 compounds together with their reported answers.
>>> numeric_value("[H]/N=C(/N)N[C@H]1[C@H](O)[C@@H](O)[C@H](O[C@@H]2O[C@@H](C)[C@](O)(C=O)[C@H]2O[C@@H]2O[C@@H](CO)[C@H](O)[C@@H](O)[C@@H]2NC)[C@@H](N/C(N)=N\\[H])[C@@H]1O [Streptomycin, streptomycin sulfate]")
16
>>> numeric_value("CC[C@@H](CO)NCCN[C@@H](CC)CO [Ethambutol, ethambutol hydrochloride]")
0
>>> numeric_value("NNC(=O)c1ccncc1")
22

Attention now turns to another entry.
// sample CO[C@H]1/C=C/O[C@@]2(C)Oc3c(C)c(O)c4c(O)c(c(/C=N/N5CCN(C)CC5)c(O)c4c3C2=O)NC(=O)/C(C)=C\C=C\[C@H](C)[C@H](O)[C@@H](C)[C@@H](O)[C@@H](C)[C@H](OC(C)=O)[C@@H]1C , its Agar proportion R (n isolates) was 5

* * *

System: M. tuberculosis isolates
Assay type: cell-based, Mycobacterium tuberculosis
Settings: phage assay result S
Where a name gives a salt, the structure may show the parent alone.
quantity name: Agar proportion R (n isolates)
Could you keep your reply to the number by itself?

Examples from the recorded data:
>>> numeric_value("CC[C@@H](CO)NCCN[C@@H](CC)CO [Ethambutol, ethambutol hydrochloride]")
8
>>> numeric_value("NNC(=O)c1ccncc1 [Isoniazid, isoniazid]")
5
>>> numeric_value("CO[C@H]1/C=C/O[C@@]2(C)Oc3c(C)c(O)c4c(O)c(c(/C=N/N5CCN(C)CC5)c(O)c4c3C2=O)NC(=O)/C(C)=C\\C=C\\[C@H](C)[C@H](O)[C@@H](C)[C@@H](O)[C@@H](C)[C@H](OC(C)=O)[C@@H]1C [Rifampin, rifampin]")
5

Let us examine a further case.
Entry [H]/N=C(/N)N[C@H]1[C@H](O)[C@@H](O)[C@H](O[C@@H]2O[C@@H](C)[C@](O)(C=O)[C@H]2O[C@@H]2O[C@@H](CO)[C@H](O)[C@@H](O)[C@@H]2NC)[C@@H](N/C(N)=N\[H])[C@@H]1O [Streptomycin, streptomycin sulfate] under M. tuberculosis isolates had Agar proportion R (n isolates) of 3

* * *

The molecules listed here are annotated with their Culture R (n samples).
System: M. tuberculosis in smear positive sputum sediments
Format: cell-based, Mycobacterium tuberculosis
Settings: sediment phage assay result R; total 22 sediments
Where a name gives a salt, the structure may show the parent alone.

Record CC[C@@H](CO)NCCN[C@@H](CC)CO [Ethambutol, ethambutol hydrochloride] , field Culture R (n samples): 0

The molecule identified as CO[C@H]1/C=C/O[C@@]2(C)Oc3c(C)c(O)c4c(O)c(c(/C=N/N5CCN(C)CC5)c(O)c4c3C2=O)NC(=O)/C(C)=C\C=C\[C@H](C)[C@H](O)[C@@H](C)[C@@H](O)[C@@H](C)[C@H](OC(C)=O)[C@@H]1C [Rifampin, rifampin] registered its Culture R (n samples) at 1

Measured Culture R (n samples), [H]/N=C(/N)N[C@H]1[C@H](O)[C@@H](O)[C@H](O[C@@H]2O[C@@H](C)[C@](O)(C=O)[C@H]2O[C@@H]2O[C@@H](CO)[C@H](O)[C@@H](O)[C@@H]2NC)[C@@H](N/C(N)=N\[H])[C@@H]1O [Streptomycin, streptomycin sulfate] : 1

// Culture R (n samples) value for NNC(=O)c1ccncc1 [Isoniazid, isoniazid] : 1
